# test target: T1, FcRn (analyte in the Biacore T200 study) (human, UniProt P55899 24-297; P61769 21-119, limits assumed)
# T1 construct: also called human FcRn
# T1 sequence (P55899 24-297 limits assumed, chain 1 of 2): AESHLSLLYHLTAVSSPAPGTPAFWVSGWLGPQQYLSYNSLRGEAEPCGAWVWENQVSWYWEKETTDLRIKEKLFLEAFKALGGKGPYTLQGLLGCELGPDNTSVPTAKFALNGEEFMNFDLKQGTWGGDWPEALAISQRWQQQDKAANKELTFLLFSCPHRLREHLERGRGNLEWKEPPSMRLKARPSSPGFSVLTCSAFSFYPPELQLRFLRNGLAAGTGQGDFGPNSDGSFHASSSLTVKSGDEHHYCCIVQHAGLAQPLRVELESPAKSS
# T1 sequence (P61769 21-119 limits assumed, chain 2 of 2): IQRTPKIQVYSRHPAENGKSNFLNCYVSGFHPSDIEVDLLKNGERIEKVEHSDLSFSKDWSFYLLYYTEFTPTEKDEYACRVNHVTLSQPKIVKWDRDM
# test: SPR Biacore T200, antibody amine-coupled to CM5, FcRn analyte, 1:1 model; pH not stated
Assignment: determine reported pKd for the given binders.
Numbers only, as −log10 of the molar value.

Below, each entry is followed by its recorded pKd result.
Task: Could you share which pKd value was measured for G47_B10/Vκ3 (antibody, V domains shown, Bivalent IgG4 with S241P, human kappa; also called SYNT002-8; G47_B10VH1_Vκ3) VH: EVQLVESGGGLVKPGGSLKLSCAASGFTFSDYGMHWVRQAPGKGLEWVAYISSGSSTIYYADTVKGRFTISRDNAKNTLYLQMNSLRAEDTAMYYCARAESTTTVGDYWGQGTSVTVSS VL: DIVMTQSPDSLSASVGDRVTITCKASQSVSNDVAWYQQKPGQPPKLLIYYASNRYTGVPDRFSGSGYGTDFTLTISSLQAEDVAVYFCQQDYSSLTFGQGTKLEIK ?
Result: 9.48

Task: Try the binder G54_D11/Vκ3 (antibody, V domains shown, Bivalent IgG4 with S241P, human kappa; also called SYNT002-17; G54_D11 VH1) VH: EVQLVESGGGLVKPGGSLKLSCAASGFTFSDYGMHWVRQAPGKGLEWVAYISSGSSTIYYADTVKGRFTISRDNAKNTLYLQMNSLRAEDTAMYYCARFDTPATVGDYWGQGTSVTVSS VL: DIVMTQSPDSLSASVGDRVTITCKASQSVSNDVAWYQQKPGQPPKLLIYYASNRYTGVPDRFSGSGYGTDFTLTISSLQAEDVAVYFCQQDYSSLTFGQGTKLEIK
Result: 8.43

Consider now this further binder.
Task: Could you share which pKd value was measured for G52_G9/Vκ3 (antibody, V domains shown, Bivalent IgG4 with S241P, human kappa; also called G52_G9 VH1) VH: EVQLVESGGGLVKPGGSLKLSCAASGFTFSDYGMHWVRQAPGKGLEWVAYISSGSSTIYYADTVKGRFTISRDNAKNTLYLQMNSLRAEDTAMYYCARFDTPSTVGDYWGQGTSVTVSS VL: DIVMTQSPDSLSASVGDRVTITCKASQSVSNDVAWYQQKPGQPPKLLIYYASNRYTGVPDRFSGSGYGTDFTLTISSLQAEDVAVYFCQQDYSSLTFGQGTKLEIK ?
Result: 8.70
